value_kind: melting point

Worked cases, answers included:
molecule: Cl.O=C(NN1CCOCC1)c1nc(-c2ccc(Cl)cc2Cl)n(-c2ccc(Cl)cc2)n1
melting point: 224 to 226 °C
//
molecule: Cl.O=C(NN1CCCCC1)c1nc(-c2ccc(Cl)cc2)n(-c2ccc(Cl)cc2Cl)n1
melting point: 238 to 240 °C (dec.)
//
molecule: Cl.O=C(NN1CCCC1)c1nc(-c2ccc(Cl)cc2)n(-c2ccc(Cl)cc2Cl)n1 [Example 2]
melting point: 248 to 255 °C (dec.)
//
molecule: CC(C)(C)ONC(=O)c1nc(-c2ccc(Cl)cc2)n(-c2ccc(Cl)cc2Cl)n1
melting point: 150 to 152 °C
//
molecule: O=C(NN1CCCCC1)c1nc(-c2cccnc2)n(-c2ccc(Cl)cc2Cl)n1 [Example 16]
melting point: 219 °C

Q. Please give measured melting point of the following entry: O=C(NN1CCOCC1)c1nc(-c2ccc(Cl)cc2)n(-c2ccc(Cl)cc2Cl)n1 [Example 6]
A. 184 to 186 °C

Q. Please give measured melting point of the following entry: Cl.O=C(NN1CCCC1)c1nc(-c2ccc(Cl)cc2Cl)n(-c2ccc(Cl)cc2)n1
A. 234 to 236 °C (dec.)

Q. Please give measured melting point of the following entry: O=C(NN1CCCCC1)c1nc(-c2ccc(Cl)cc2Cl)n(-c2ccc(C(F)(F)F)cc2)n1 [Example 14]
A. 159 to 161 °C

Q. Please give measured melting point of the following entry: O=C(NC1CCCCC1)c1nc(-c2ccc(Cl)cc2)n(-c2ccc(Cl)cc2Cl)n1 [Example 3]
A. 186 to 188 °C

Q. Please give measured melting point of the following entry: O=C(NN1CCCCC1)c1nc(-c2ccccn2)n(-c2ccc(Cl)cc2Cl)n1 [Example 13]
A. 191 to 193 °C

----------
Ki values by entry
Target: human cannabis CB1 receptor (Homo sapiens, UniProt P21554)
Construct: expressed in transfected cells; host or cells: Chinese hamster ovary (CHO) cells, stably transfected; membrane preparation
Sequence (P21554 whole entry): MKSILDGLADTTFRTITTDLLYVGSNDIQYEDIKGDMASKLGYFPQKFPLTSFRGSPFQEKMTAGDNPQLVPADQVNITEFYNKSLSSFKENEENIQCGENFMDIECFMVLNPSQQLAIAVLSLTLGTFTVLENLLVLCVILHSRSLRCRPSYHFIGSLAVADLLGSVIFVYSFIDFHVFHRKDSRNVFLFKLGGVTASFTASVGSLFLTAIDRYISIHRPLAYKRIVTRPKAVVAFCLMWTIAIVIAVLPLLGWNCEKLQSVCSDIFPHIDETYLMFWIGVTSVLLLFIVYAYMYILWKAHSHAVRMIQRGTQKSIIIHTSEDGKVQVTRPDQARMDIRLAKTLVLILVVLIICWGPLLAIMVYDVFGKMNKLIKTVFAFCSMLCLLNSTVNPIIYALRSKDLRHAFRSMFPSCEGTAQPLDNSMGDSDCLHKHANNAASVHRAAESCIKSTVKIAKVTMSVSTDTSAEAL
Assay: In vitro affinity for cannabinoid CB1 receptors, [3H]CP-55,940 radioligand, CHO cell membrane preparations
Type: binding
# number only, unit nM dropped from output

compound: CCCCCNC(=O)c1nc(-c2ccc(Cl)cc2Cl)n(-c2ccc(Cl)cc2)n1 [Example 11]
value_kind: Ki
value_reported: 501

Consider the additional compound presented here.
Q. Please give measured Ki of the following entry: CCCCCNC(=O)c1nc(-c2ccc(Cl)cc2)n(-c2ccc(Cl)cc2Cl)n1 [Example 5]
A. 126

Every entry's value here was drawn from patent US20050124660A1.
